Assay: GC/MS of blood plasma sample: time from blood collection to cooling of blood (Table B)
Type: physicochemical, human
Details: detection intensity, blood collection to cooling 5 minutes or more vs 1 minute or less
Experimental: At room temperature, 5 mL of blood from a healthy subject was taken into a blood-collecting vessel containing EDTA, and the blood-collecting vessel was inverted for mixing, then cooled, and allowed to stand at 4° C. […]
Property name: Increase or decrease

Examples with their reported Increase or decrease follow.
CC(C)(CO)[C@@H](O)C(=O)NCCC(=O)O [Pantothenic acid]: Increase
N[C@@H](CS(=O)O)C(=O)O [3-Sulfinoalanine]: Decrease
CS(=O)(=O)CC[C@H](N)C(=O)O [Methionine sulfone]: Decrease
O=c1[nH]c(=O)c2[nH]cnc2[nH]1 [Xanthine]: Decrease
Oc1ccc(O)cc1 [Hydroquinone]: Decrease
O=P(O)(O)OCC(O)CO (centres unmarked) [Glycerol-3-phosphate]: Increase
Oc1ccccn1 [2-Hydroxypyridine]: Decrease
CCC(=O)C(=O)O [2-Ketobutyric acid]: Decrease

Next, consider the following molecule.
Query (molecule): O=c1[nH]c(=O)c2[nH]c(=O)[nH]c2[nH]1 [Uric acid] ; field requested: Increase or decrease
Decrease
